Experiment notes: HPLC measurement of MG concentration in whole brain after i.p. MG
Assay type: in vivo, mouse
Condition: B6, mouse, intraperitoneal; MG 300 mg/kg i.p., brain; read-out: Estimated MG concentration
Metric: concentration at 10 min (µM)

CC(=O)C=O :: 8.26

====

Experiment notes: HPLC measurement of MG concentration in whole brain after i.p. MG
Assay type: in vivo, mouse
Condition: B6, mouse, intraperitoneal; MG 100 mg/kg i.p., brain; read-out: Estimated MG concentration
Metric: concentration at 10 min (µM)

CC(=O)C=O :: 6.54

====

Experiment notes: HPLC measurement of MG concentration in whole brain after i.p. MG
Type: in vivo, mouse
Condition: mouse, intraperitoneal; MG 50 mg/kg i.p. (anxiolytic dose), brain; read-out: Estimated MG concentration
Metric: concentration at 10 min

CC(=O)C=O [MG, methylglyoxal] :: ~6 µM
